target: human GLP-1 receptor (human, UniProt P43220 24-463); assay: cell-based or functional assay
*1 amine or outer side, *2 acyl side, *3 side chain or, on linkers, in order; H or OH if unused. Where no end group is shown, it is not given here. Side-chain parts run from the residue outwards. [ ]: non-standard residue; d: D form. The star is where a group is joined. αMePhe(2-F) = C[C@](N)(Cc1ccccc1F)C(=O)O; γGlu = O=C(O)[C@H](CCC(=O)[*:2])N[*:1]; C14 diacid = O=C(O)CCCCCCCCCCCCC(=O)*; αMeY = C[C@](N)(Cc1ccc(O)cc1)C(=O)O; αMeL = CC(C)C[C@](C)(N)C(=O)O; Orn = NCCC[C@H](N)C(=O)O; AEEA = NCCOCCOCC(=O)O; Aib = CC(C)(N)C(=O)O
Hi there, I'd appreciate the recorded EC50, cAMP for every entry that follows.

Before answering, review these 4 worked examples.
**Query** Recall and state the measured EC50, cAMP for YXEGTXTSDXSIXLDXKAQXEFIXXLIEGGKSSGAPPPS (Aib2, αMeF(2F)6, 2Nal10, αMeL13, Orn16, Aib20, D-Glu24, αMeY25, K17 and K31: K(AEEA2-(γ-Glu)-CO-(CH2)12-CO2H), C-terminal NH2) [Example 57] .
**Result** 0.14 nM

**Query** Recall and state the measured EC50, cAMP for YXEGTXTSDXSIXLDXKAQXEXIKXLIEGGPSSGAPPPS (Aib2, αMeF(2F)6, Ac5c10, αMeL13, Orn16, Aib20, αMeF22, αMeF25, K17 and K24: K(AEEA2-(γ-Glu)-CO-(CH2)12-CO2H), C-terminal NH2) [Example 124] .
**Result** 1.24 nM

**Query** Recall and state the measured EC50, cAMP for YXEGTXTSDKSIXLDXIAQXKFIXXLIEGGPSSGAPPPS (Aib2, αMeF(2F)6, αMeL13, Orn16, Aib20, D-Glu24, αMeY25, K10 and K21: K(AEEA2-(γ-Glu)-CO-(CH2)12-CO2H), C-terminal NH2) [Example 105] .
**Result** 0.52 nM

**Query** Recall and state the measured EC50, cAMP for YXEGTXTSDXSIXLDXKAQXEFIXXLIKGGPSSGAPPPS (Aib2, αMeF(2F)6, 4Pal10, αMeL13, Orn16, Aib20, D-Glu24, αMeY25, K17 and K28: K(AEEA2-(γ-Glu)-(10-(4-carboxyphenoxy)decanoyl)), C-terminal NH2) [Example 129] .
**Result** 1.28 nM

Proceeding to the next binder to report its EC50, cAMP.
**Query** Recall and state the measured EC50, cAMP for Y[Aib]EGT[αMePhe(2-F)]TSDK([AEEA-AEEA-γGlu-C14 diacid])SI[αMeL]LD[Orn]IAQ[Aib]EFIK([AEEA-AEEA-γGlu-C14 diacid])[αMeY]LIEGGPSSGAPPPS-NH2 [Example 106] .
**Result** 0.296 nM
